binding signal reference
Target: T1, HigA2 (Mycobacterium tuberculosis H37Rv, UniProt O53467 1-101)
T1 sequence: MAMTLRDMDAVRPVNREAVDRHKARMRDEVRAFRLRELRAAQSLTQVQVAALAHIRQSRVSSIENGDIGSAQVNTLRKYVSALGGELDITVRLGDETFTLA
Test: EMSA; essentially complete binding; 1 uM DNA; EMSA: 20 mM Tris-HCl, 150 mM NaCl, pH 8.0, 37 °C, 5 min, HigA2 1 uM (titrated in Fig 4); agarose or native PAGE. Pull-down: streptavidin beads, 4 °C, PBS washes
Conditions: protein: recombinant; tags: C-terminal 6xHis; chain copies: 2; blunt
ATTRIBUTE MEASURED: binding signal

>>> df
                                     binder  attribute_measured  reported_result
0  Rv0010c-40bp (dsDNA) DNA 1: CAGTGGGGATGAATCACATGCGTGTGATTGAGTGACCAAA DNA 2: TTTGGTCACTCAATCACACGCATGTGATTCATCCCCACTG      binding signal            ~8 µM
1  Rv2044c-40bp (dsDNA) DNA 1: TGTCGCTCACTACATCACCGGCGTGATCTATCCCGCCGGT DNA 2: ACCGGCGGGATAGATCACGCCGGTGATGTAGTGAGCGACA      binding signal            ~5 µM
2  Rv2434c-40bp (dsDNA) DNA 1: GGTTCCCATGGGTATCACCTTCGTGATCGCCGGCAGCGTG DNA 2: CACGCTGCCGGCGATCACGAAGGTGATACCCATGGGAACC      binding signal           ~20 µM
3  Rv3396c-40bp (dsDNA) DNA 1: TGTGGGGTGTGCATCACCTCCGGGTGATACTGCACCCCGG DNA 2: CCGGGGTGCAGTATCACCCGGAGGTGATGCACACCCCACA      binding signal            ~8 µM
4  Rv0086-40bp (dsDNA) DNA 1: CGCCATCGCCGATATCACCGGCGTGATGCGACGGTCGCGG DNA 2: CCGCGACCGTCGCATCACGCCGGTGATATCGGCGATGGCG      binding signal           ~20 µM
5  Rv1733c-40bp (dsDNA) DNA 1: GTGTTGCTGTCGATCACCCCCTCGTGATCGATCACGGTCG DNA 2: CGACCGTGATCGATCACGAGGGGGTGATCGACAGCAACAC      binding signal            ~8 µM
6  Rv0258c-40bp (dsDNA) DNA 1: CATGGTGTCAGGATCACCCCGCTGTGATCAAAGATCAAGC DNA 2: GCTTGATCTTTGATCACAGCGGGGTGATCCTGACACCATG      binding signal            ~5 µM
